# System: Myzus persicae
# test_summary: Antifeedant activity against Myzus persicae (green peach aphid) adults fed on compound treated […] annuum leaves assessed as feeding level at 50 ug/cm2 (reference value: 43 to 70%)
# Assay type: functional
Items are presented alongside their recorded Activity.
Just the number in %, nothing appended.

Guide cases for Activity, answers given:
> print(dat)
                                   compound  result
1  C/C=C1\C[C@@H](C)[C@@](C)(O)C(=O)OC/C2=C/CN(C)CC[C@@H](OC1=O)C2=O [SENKIRKINE]      35
2  C/C=C1/C[C@@H](C)[C@@](C)(OC(C)=O)C(=O)OC/C2=C/CN(C)CC[C@@H](OC1=O)C2=O [ACETYLSENKIRKINE]      35

input: Please give the measured Activity for this compound: C/C=C1\C[C@@H](C)[C@](O)(COC(C)=O)C(=O)OCC2=CCN3CC[C@@H](OC1=O)[C@@H]23 [ACETYLUSARAMINE]
output: 40

input: // same read-out, input: C=C1C/C(=C/C)C(=O)O[C@@H]2CCN3CC=C(COC(=O)[C@]1(C)O)[C@H]23 [SENECIPHYLLINE]
output: 50
